Measured half-life accompanies every entry in the list below.
- test_method_notes: Solution stability assay (pH 1.0 and pH 7.4, 37° C.)
- Assay type: physicochemical
- experimental_setup: pH 7.4; conversion of the prodrug to compound 1; 37° C.; read-out: Aq. Stability half-life (pH 1/7.4) Hrs (converted)

Sample answers from the record:
Prompt: Tell me its half-life given CCC(O)CC(=O)OCOC(=O)OC(C)(C)CNC(=O)N[C@@H](C(=O)N1CC[C@](O)(c2ccc(Cl)cc2)C(C)(C)C1)C(C)C (stereo partly shown) as the entry.
Completion: > 22 h

Prompt: Give half-life for CC(C)[C@@H](NC(=O)NCC(C)(C)OC(=O)C(N)CS(=O)(=O)O)C(=O)N1CC[C@](O)(c2ccc(Cl)cc2)C(C)(C)C1 (stereo partly shown)
Completion: > 22 h

---
Prompt: Quote half-life reported for CC(O)C(=O)OCO[C@]1(c2ccc(Cl)cc2)CCN(C(=O)[C@H](NC(=O)NCC(C)(C)O)C(C)C)CC1(C)C (stereo partly shown) please.
Completion: > 22 h

Prompt: In one line, give reported half-life of the entry CC(C)[C@@H](NC(=O)NCC(C)(C)OC(=O)OCOC(=O)Cc1ccc(OP(=O)(O)O)cc1)C(=O)N1CC[C@](O)(c2ccc(Cl)cc2)C(C)(C)C1 .
Completion: 72 h

Prompt: Specify reported half-life for the compound shown: CC(=O)OCOC(=O)OC(C)(C)CNC(=O)N[C@@H](C(=O)N1CC[C@](O)(c2ccc(Cl)cc2)C(C)(C)C1)C(C)C
Completion: > 22 h

Prompt: Let me know recorded half-life for CC(C)[C@@H](NC(=O)NCC(C)(C)OC(=O)OCOC(=O)CS(=O)(=O)O)C(=O)N1CC[C@](O)(c2ccc(Cl)cc2)C(C)(C)C1 , thanks.
Completion: > 22 h

Prompt: Identify half-life associated with the compound CC(C)[C@@H](NC(=O)NCC(C)(C)OC(=O)CCC(=O)O)C(=O)N1CC[C@](O)(c2ccc(Cl)cc2)C(C)(C)C1
Completion: > 22 h

Prompt: Query half-life for CC(C)[C@@H](NC(=O)NCC(C)(C)OC(=O)OCCN1CCOCC1)C(=O)N1CC[C@](O)(c2ccc(Cl)cc2)C(C)(C)C1
Completion: 131 h

Prompt: Give reported half-life value for CC(C)[C@@H](NC(=O)NCC(C)(C)OC(=O)OCS(=O)(=O)O)C(=O)N1CC[C@](O)(c2ccc(Cl)cc2)C(C)(C)C1
Completion: 23 h

Prompt: Give the reported value of half-life for this record: CCOC(=O)CCC(=O)OC(C)(C)CNC(=O)N[C@@H](C(=O)N1CC[C@](O)(c2ccc(Cl)cc2)C(C)(C)C1)C(C)C
Completion: > 22 h

Prompt: Answer with the recorded half-life for the compound listed here: COC(=O)CCC(=O)OC(C)(C)CNC(=O)N[C@@H](C(=O)N1CC[C@](O)(c2ccc(Cl)cc2)C(C)(C)C1)C(C)C
Completion: > 22 h

Prompt: Look up and report measured half-life for this entry: CC(COC(=O)OC(C)(C)CNC(=O)N[C@@H](C(=O)N1CC[C@](O)(c2ccc(Cl)cc2)C(C)(C)C1)C(C)C)OP(=O)(O)O (stereo partly shown)
Completion: > 22 h

Prompt: Using the record for CC(C)[C@@H](NC(=O)NCC(C)(C)OC(=O)OCOP(=O)(O)O)C(=O)N1CC[C@](O)(c2ccc(Cl)cc2)C(C)(C)C1 , state its measured half-life.
Completion: 0.3 h
